Cited source for all entries: PubChem BioAssay (NCI)

Entries and their measured TGI follow.
# System: OVCAR-5 ovarian
# ASSAY OVERVIEW: NCI tumour cell line growth inhibition, 48 h

Record excerpt, results attached:
1. CC(=O)[CH-]C(=O)c1ccccc1.CC(=O)[CH-]C(=O)c1ccccc1.CC[O-].O=C1C=C([O-])C(=O)c2ccccc21.[Ti+4]: > 100 µM
2. CC1(C)CC(O)CCCCCCOc2c(CN)cccc2NC(=O)c2nc(cnc2N)-c2ccc(cc2)S1(=O)=O (stereo not given): 6.34 µM

What does the data say about its TGI? Entry: COc1ccc(Cn2cc3c(c2-c2ccccc2)CCc2cncnc2-3)cc1
37.7 µM

Could you tell me which TGI is on file for C[N+](C)(N)Cc1csc(-c2ccc(Cl)cc2)n1 ?
> 100 µM

Suppose we examine the molecule Oc1oc(-c2ccccc2)nc1/C=C1/C=NN=N1 ; what TGI value has been reported?
> 100 µM
